target: IDO1 (Homo sapiens, UniProt P14902); assay: IDO1 Cellular Assay in HeLa Cells Stimulated with IFNγ; assay type: cell-based; conditions: read-out: HeLa Cell Potency, IC50
Sequence (P14902 whole entry): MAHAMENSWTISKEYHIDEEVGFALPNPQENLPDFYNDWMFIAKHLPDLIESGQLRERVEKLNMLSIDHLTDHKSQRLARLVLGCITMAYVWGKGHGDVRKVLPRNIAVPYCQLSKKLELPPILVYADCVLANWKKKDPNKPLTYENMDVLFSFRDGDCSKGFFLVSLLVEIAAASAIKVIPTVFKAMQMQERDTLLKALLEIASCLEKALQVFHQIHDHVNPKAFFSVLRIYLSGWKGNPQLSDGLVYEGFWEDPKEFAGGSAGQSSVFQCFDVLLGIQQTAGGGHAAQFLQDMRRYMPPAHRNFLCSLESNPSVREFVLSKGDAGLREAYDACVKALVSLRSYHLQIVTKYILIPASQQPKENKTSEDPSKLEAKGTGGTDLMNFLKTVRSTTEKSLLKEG
pIC50: −log10 of the molar value.
Label True for high-side pIC50 (at or above 8) and False for low-side pIC50 (below it).

In: Determine whether this compound has pIC50 no lower than 8: "Cc1c(Cl)cccc1N1CCN(C(=O)Cn2nc(C(=O)N3CCC(F)(CN)CC3)c3c2C[C@H]2C[C@@H]32)C2(CC2)C1"
Out: True

In: Determine whether this compound has pIC50 no lower than 8: Cc1cccc(N2CCN(C(=O)Cn3nc(C(=O)N4CCC(O)CC4)c4c3CC(C(F)F)C4)CC2)c1C (single isomer, unassigned) [Example 10]
Out: True

In: Determine whether this compound has pIC50 no lower than 8: "Cc1cccc(N2CCN(C(=O)Cn3nc(C(=O)N4CCN(C(=O)CO)[C@H](C)C4)c4c3CCC4)CC2)c1C"
Out: False

In: Determine whether this compound has pIC50 no lower than 8: "Cc1cccc(N2CCN(C(=O)Cn3nc(C(=O)N4CCN(C(=O)CO)CC4)c4c3CCC4)CC2)c1C"
Out: False

In: Determine whether this compound has pIC50 no lower than 8: Cc1cccc(N2CCN(C(=O)Cn3nc(C(=O)N4CC[C@H](N)C(F)(F)C4)c4c3CCC4)CC2)c1C (single isomer, unassigned)
Out: False

In: Determine whether this compound has pIC50 no lower than 8: "C[C@@H]1CN(C(=O)c2nn(CC(=O)N3CCN(c4ccc(F)c(F)c4F)CC3)c3c2CCC3)C[C@H](C)O1"
Out: False
